# Study system: Tyrosine-protein phosphatase non-receptor type 1 (Homo sapiens, UniProt P18031)
# Sequence (P18031 whole entry): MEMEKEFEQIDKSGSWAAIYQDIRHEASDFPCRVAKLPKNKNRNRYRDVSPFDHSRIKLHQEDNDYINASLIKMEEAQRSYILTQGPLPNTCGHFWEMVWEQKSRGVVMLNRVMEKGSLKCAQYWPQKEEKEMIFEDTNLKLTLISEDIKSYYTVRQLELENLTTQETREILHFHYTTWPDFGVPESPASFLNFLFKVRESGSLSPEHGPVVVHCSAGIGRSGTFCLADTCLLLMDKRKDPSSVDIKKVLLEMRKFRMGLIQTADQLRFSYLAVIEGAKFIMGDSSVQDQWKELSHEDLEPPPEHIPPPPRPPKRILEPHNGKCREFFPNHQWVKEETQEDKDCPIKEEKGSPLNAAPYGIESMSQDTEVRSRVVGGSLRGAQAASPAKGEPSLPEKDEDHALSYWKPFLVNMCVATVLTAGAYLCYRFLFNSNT
# Assay: Inhibition of PTP1B (unknown origin)
Recorded metric: IC50 (µM)
Express the result in µM but write the number alone.

For Cc1c(C)c2c(C)cc(OCCOC(=O)/C=C/c3ccc(Cl)cc3Cl)cc2oc1=O on Tyrosine-protein phosphatase non-receptor type 1 (Homo sapiens, UniProt P18031), measured IC50 was 47

* * *

Measured IC50 values are reported for all entries that follow.
# Study system: Alpha glucosidase (Homo sapiens, UniProt O43451+P10253+P14410+Q2M2H8)
# Assay: Inhibition of alpha-glucosidase (unknown origin) using p-NPG as substrate incubated for 15 mins by spectrophotometric analysis
# Format: protein assay
Please append the unit to your numeric answer.

C/C=C\C(=O)O[C@H]1[C@H](O)c2cc3ccc(=O)oc3cc2OC1(C)C : 77.3 µM
CC(C)c1cc2cc3ccc(=O)oc3cc2o1 : 85.8 µM
CO[C@@H]1c2cc3ccc(=O)oc3cc2OC(C)(C)[C@H]1OC(=O)C=C(C)C : 89.2 µM
CC(C)=CC(=O)O[C@@H]1c2cc3ccc(=O)oc3cc2OC(C)(C)[C@H]1OC(=O)C=C(C)C : 79.1 µM
O=C(O)c1cc2ccc(=O)oc2cc1O : 172.1 µM

Turning now to a further compound:
The measured IC50 that CC1(C)Oc2cc3oc(=O)ccc3cc2C[C@@H]1O showed for Alpha glucosidase (Homo sapiens, UniProt O43451+P10253+P14410+Q2M2H8) is 65.3 µM

* * *

# Assay: Inhibition of alpha-amylase (unknown origin)
# Design: species or system Homo sapiens
# IC50 values compiled below
State the answer as a number, implicitly in µM.

C[C@H]1O[C@H](O[C@H]2[C@H](O)[C@@H](O)[C@@H](O[C@H]3[C@H](O)[C@@H](O)C(O)O[C@@H]3CO)O[C@@H]2CO)[C@H](O)[C@@H](O)[C@@H]1N[C@H]1C=C(CO)[C@@H](O)[C@H](O)[C@H]1O (some centres not stated) [ACARBOSE] : 17.8

Documented IC50 of Cc1c(C)c2c(C)cc(OCCOC(=O)/C=C/c3ccc(Cl)cc3Cl)cc2oc1=O : 30.6

* * *

# Study system: Alpha glucosidase (Homo sapiens, UniProt O43451+P10253+P14410+Q2M2H8)
# Assay: Inhibition of alpha-glucosidase (unknown origin) using p-NPG as substrate preincubated for 15 mins followed by substrate addition for 30 mins by absorbance based analysis
# Type: protein assay
Recorded metric: IC50

O=C(/C=C/c1ccccc1)OCCOc1ccc2ccc(=O)oc2c1 : 235.6 µM

Recorded result, O=C(/C=C/c1ccc2ccccc2c1)OCCOc1ccc2ccc(=O)oc2c1 , IC50: > 300 µM

* * *

# Study system: Alpha glucosidase (Homo sapiens, UniProt O43451+P10253+P14410+Q2M2H8)
# Assay: Inhibition of alpha-glucosidase (unknown origin) using p-NPG as substrate preincubated for 15 mins followed by substrate addition for 30 mins by absorbance based analysis
# Assay type: protein assay
Measured IC50, listed per entry for reference.
Please respond with the number in µM and leave the unit unwritten.

O=C(/C=C/c1ccccc1[N+](=O)[O-])OCCOc1ccc2ccc(=O)oc2c1 : 299.7
O=C(OCCOc1ccc2ccc(=O)oc2c1)c1ccc(Cl)cc1Cl : 99
O=C(/C=C/c1cccc(Br)c1)OCCOc1ccc2ccc(=O)oc2c1 : 132.7
O=C(/C=C/c1ccc(Cl)cc1Cl)OCCOc1ccc2ccc(=O)oc2c1 : 116.5

Turning to the following molecule.
Per the records, this molecule ( Cc1c(C)c2c(C)cc(OCCOC(=O)/C=C/c3ccc(Cl)cc3Cl)cc2oc1=O ) has IC50 equal to 66.3
